Test system: K. pneumoniae GN_106, PmxR
cond: GN 106, PmxR
Positions of bridges follow the written chain, without caps; N, C: chain ends. Non-standard residues stand in square brackets, D forms with d. Residues, ends and D or L forms follow the SMILES beside them. *: point of attachment. Isonicotinoyl(2-Ph) = O=C(c1ccnc(-c2ccccc2)c1)*; Decanoyl(3R-OH) = CCCCCCC[C@@H](O)CC(=O)*; dOrn = NCCC[C@@H](N)C(=O)O; dDab = NCC[C@@H](N)C(=O)O; Dab = NCC[C@H](N)C(=O)O
measurement name: MIC K. pneumoniae GN_106, PmxR (µg/mL)

1) CC(C)C[C@@H]1NC(=O)[C@H](CCN)NC(=O)[C@H](CCN)NC(=O)[C@H](Cc2ccccc2)NC(=O)[C@@H](CC(C)C)NC(=O)[C@H](CCN)NC(=O)[C@@H](NC(=O)[C@@H](CCN)NC(=O)c2ccnc(-c3ccccc3)c2)CCNC1=O [compound 6517] ({Isonicotinoyl(2-Ph)}-[dDab][Dab][Dab][dL]F[Dab][Dab]L; lactam 2-C)    32
2) CCCCCCC[C@@H](O)CC(=O)N[C@H](CCCN)C(=O)N[C@H]1CCNC(=O)[C@H](CC(C)C)NC(=O)[C@H](CCN)NC(=O)[C@H](CCN)NC(=O)[C@H](CC(C)C)NC(=O)[C@@H](Cc2ccccc2)NC(=O)[C@H](CCN)NC1=O [compound 6443] ({Decanoyl(3R-OH)}-[dOrn][Dab][Dab][dF]L[Dab][Dab]L; lactam 2-C)    4

###

Test system: K. pneumoniae GN_106, PmxR
cond: GN 106, PmxR
Positions of bridges follow the written chain, without caps; N, C: chain ends. Non-standard residues stand in square brackets, D forms with d. Residues, ends and D or L forms follow the SMILES beside them. *: point of attachment. Decanoyl(3R-OH) = CCCCCCC[C@@H](O)CC(=O)*; dPhe(4-NH2) = Nc1ccc(C[C@@H](N)C(=O)O)cc1; Igl = N[C@H](C(=O)O)C1Cc2ccccc2C1; 4Pal = N[C@@H](Cc1ccncc1)C(=O)O; d3Pal = N[C@H](Cc1cccnc1)C(=O)O; dOrn = NCCC[C@@H](N)C(=O)O; dDab = NCC[C@@H](N)C(=O)O; dDap = NC[C@@H](N)C(=O)O; Dab = NCC[C@H](N)C(=O)O
measurement name: MIC K. pneumoniae GN_106, PmxR

1. CCCCCCC[C@@H](O)CC(=O)N[C@H](CCN)C(=O)N[C@H]1CCNC(=O)[C@H](Cc2ccncc2)NC(=O)[C@H](CCN)NC(=O)[C@H](CCN)NC(=O)[C@H](CC(C)C)NC(=O)[C@@H](Cc2ccccc2)NC(=O)[C@H](CCN)NC1=O [compound 8906] ({Decanoyl(3R-OH)}-[dDab][Dab][Dab][dF]L[Dab][Dab][4Pal]; lactam 2-C)    16 µg/mL
2. CCCCCCC[C@@H](O)CC(=O)N[C@H](CCN)C(=O)N[C@H]1CCNC(=O)[C@H](CC(=O)O)NC(=O)[C@H](CCN)NC(=O)[C@H](CCN)NC(=O)[C@H](CC(C)C)NC(=O)[C@@H](Cc2ccccc2)NC(=O)[C@H](CCN)NC1=O [compound 6513] ({Decanoyl(3R-OH)}-[dDab][Dab][Dab][dF]L[Dab][Dab]D; lactam 2-C)    >32 µg/mL
3. CCCCCCC[C@@H](O)CC(=O)N[C@H](Cc1ccc(N)cc1)C(=O)N[C@H]1CCNC(=O)[C@H](CC(C)C)NC(=O)[C@H](CCN)NC(=O)[C@H](CCN)NC(=O)[C@H](Cc2ccccc2)NC(=O)[C@@H](CC(C)C)NC(=O)[C@H](CCN)NC1=O [compound 6429] ({Decanoyl(3R-OH)}-[dPhe(4-NH2)][Dab][Dab][dL]F[Dab][Dab]L; lactam 2-C)    8 µg/mL
4. CCCCCCC[C@@H](O)CC(=O)N[C@H](CCCN)C(=O)N[C@H]1CCNC(=O)[C@H](CC(C)C)NC(=O)[C@H](CCN)NC(=O)[C@H](CCN)NC(=O)[C@H](Cc2ccccc2)NC(=O)[C@@H](CC(C)C)NC(=O)[C@H](CCN)NC1=O [compound 6428] ({Decanoyl(3R-OH)}-[dOrn][Dab][Dab][dL]F[Dab][Dab]L; lactam 2-C)    4 µg/mL
5. CCCCCCC[C@@H](O)CC(=O)N[C@H](Cc1cccnc1)C(=O)N[C@H]1CCNC(=O)[C@H]([C@@H](C)O)NC(=O)[C@H](CCN)NC(=O)[C@H](CCN)NC(=O)[C@H](CC(C)C)NC(=O)[C@@H](Cc2ccccc2)NC(=O)[C@H](CCN)NC1=O [compound 6398] ({Decanoyl(3R-OH)}-[d3Pal][Dab][Dab][dF]L[Dab][Dab]T; lactam 2-C)    >32 µg/mL
6. CCCCCCC[C@@H](O)CC(=O)N[C@H](CN)C(=O)N[C@H]1CCNC(=O)[C@H](Cc2c[nH]c3ccccc23)NC(=O)[C@H](CCCCN)NC(=O)[C@H](CCCNC(=N)N)NC(=O)[C@H](C2Cc3ccccc3C2)NC(=O)[C@@H](Cc2ccccc2)NC(=O)[C@H](CCN)NC1=O [compound 8890] ({Decanoyl(3R-OH)}-[dDap][Dab][Dab][dF][Igl]RKW; lactam 2-C)    4 µg/mL

Values from patent US11279733B2
